Reference source: patent US20200062804A1

Field: IC50, Thiofiavin T aggregation assay. Provide a value for each of the binders that follow.
- system: T1, Nat1 (LTIITLE) (also: TFA salt)
- T1 peptide: LTIITLE
- experiment-summary: cell-based or functional assay
Non-standard residues stand in square brackets, D forms with d. No end group written: not given here.
# answer = value followed by unit

Prompt: Fill in the blank: the reported IC50, Thiofiavin T aggregation assay of [dF][dF][dR][dF][dH][dR][dR] [ffrfhrr] is ____.
Response: 104 nM

Prompt: Now give it for `LRIRYWK` too.
Response: 36 nM

Prompt: Now give it for [dF][dW][dA][dW][dH][dR][dR] [fwawhrr] too.
Response: 239 nM

Prompt: Now give it for [dR][dQ][dW][dY][dR][dW][dQ] [rqwyrwq] too.
Response: 2720 nM

Prompt: Now give it for `LLIKYAR` too.
Response: 301 nM

Prompt: Now give it for `LRIRHVK` too.
Response: 246 nM

Prompt: Now give it for [dK][dQ][dW][dY][dH][dW][dR] [kqwyhwr] too.
Response: 252 nM
